Every entry's value here was drawn from patent US20230233569A1.

Form field: IC50 (one value per entry).
target: KRAS G12C (Homo sapiens, UniProt P01116+P62937, G12C); assay: Disruption of BRAF RBD interaction with Ras (FRET / MOA assay, with Cyclophilin A); assay type: biochemical; conditions: read-out: KRAS G12C FRET data, IC50
Sequence (P01116 1-169 isoform P01116-2 G12C): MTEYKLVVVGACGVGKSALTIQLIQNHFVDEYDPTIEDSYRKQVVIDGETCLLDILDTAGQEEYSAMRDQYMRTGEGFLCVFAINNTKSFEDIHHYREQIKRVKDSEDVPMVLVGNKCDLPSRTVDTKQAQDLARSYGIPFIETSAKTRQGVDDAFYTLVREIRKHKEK
Sequence (P62937 whole entry): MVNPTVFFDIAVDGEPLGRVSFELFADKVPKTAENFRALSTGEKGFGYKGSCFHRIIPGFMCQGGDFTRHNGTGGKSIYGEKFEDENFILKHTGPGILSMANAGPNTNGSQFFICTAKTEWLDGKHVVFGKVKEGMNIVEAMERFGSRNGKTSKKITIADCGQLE

### Prompt Look up IC50 for this compound: CCn1c(-c2cccnc2[C@H](C)OC)c2c3cc(ccc31)-c1csc(n1)C[C@H](NC(=O)[C@H](C(C)C)N(C)C(=O)N1CC3(CCCO3)C1)C(=O)N1CCC[C@H](N1)C(=O)OCC(C)(C)C2 (atropisomer, axis not shown)
### Response 100 to 1000 nM

### Prompt Name the recorded IC50 for `CCn1c(-c2cccnc2[C@H](C)OC)c2c3cc(ccc31)-c1csc(n1)C[C@H](NC(=O)[C@H](C(C)C)N(C)C(=O)N1CC(N3CCN(C)CC3)C1)C(=O)N1CCC[C@H](N1)C(=O)OCC(C)(C)C2` .
### Response 10 to 100 nM

### Prompt Reported IC50, compound CCn1c(-c2cccnc2[C@H](C)OC)c2c3cc(ccc31)-c1cc(O)cc(c1)C[C@H](NC(=O)[C@H](C(C)C)N(C)C(=O)C1CCc3ccccc3N1)C(=O)N1CCC[C@H](N1)C(=O)OCC(C)(C)C2 (stereo partly shown) : ____
### Response 10 to 100 nM

### Prompt State the recorded IC50 for this entry: `CCn1c(-c2cccnc2[C@H](C)OC)c2c3cc(ccc31)-c1csc(n1)C[C@H](NC(=O)c1ccccn1)C(=O)N1CCC[C@H](N1)C(=O)OCC(C)(C)C2`
### Response 100 to 1000 nM

----------
Target: KRAS WT (Homo sapiens, UniProt P01116+P62937)
Sequence (P01116 1-169 isoform P01116-2 limits assumed): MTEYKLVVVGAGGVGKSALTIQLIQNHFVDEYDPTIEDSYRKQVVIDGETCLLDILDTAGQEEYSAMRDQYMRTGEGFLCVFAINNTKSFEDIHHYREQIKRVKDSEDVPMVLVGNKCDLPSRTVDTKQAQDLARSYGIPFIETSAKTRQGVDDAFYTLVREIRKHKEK
Sequence (P62937 whole entry): as the sequence (P62937 whole entry) above
Experiment: Disruption of BRAF RBD interaction with Ras (FRET / MOA assay, with Cyclophilin A)
Type: biochemical
Conditions: KRAS WT; read-out: KRAS WT FRET data IC50
Source text: This protocol may also be executed substituting other Ras proteins or nucleotides. The purpose of this biochemical assay was to measure the ability of test compounds to facilitate ternary complex formation between a nucleotide-loaded K-Ras isoform and Cyclophilin A; the resulting ternary complex disrupts binding to a BRAF^RBD construct, inhibiting K-Ras signaling through a RAF effector. Data is reported as IC50 values. […]
Listing: IC50 of selected compounds

CCn1c(-c2cccnc2[C@H](C)OC)c2c3cc(ccc31)-c1csc(n1)C[C@H](NC(=O)[C@H](C(C)C)N(C)C(=O)N1CC3(CCN(C)CC3)C1)C(=O)N1CCC[C@H](N1)C(=O)OCC(C)(C)C2 : 100 to 1000 nM
CCn1c(-c2cccnc2[C@H](C)OC)c2c3cc(ccc31)-c1csc(n1)C[C@H](NC(=O)[C@H](C(C)C)N(C)C(=O)N1CCC[C@H]1CN(C)C)C(=O)N1CCC[C@H](N1)C(=O)OCC(C)(C)C2 : 100 to 1000 nM

### Prompt IC50 lookup needed for CCn1c(-c2cccnc2[C@H](C)OC)c2c3cc(ccc31)-c1csc(n1)C[C@H](NC(=O)[C@H](C(C)C)N(C)C(=O)N(C)C)C(=O)N1CCC[C@H](N1)C(=O)OCC(C)(C)C2 (racemic) , thanks.
### Response 100 to 1000 nM

### Prompt Name the reported IC50 value associated with the compound `CCn1c(-c2cccnc2[C@H](C)OC)c2c3cc(ccc31)-c1csc(n1)C[C@H](NC(=O)[C@H](C(C)C)N(C)C(=O)N1CC[C@]13CCCN(C)C3)C(=O)N1CCC[C@H](N1)C(=O)OCC(C)(C)C2`
### Response 1000 to 10000 nM

### Prompt Entry under review: CCn1c(-c2cccnc2[C@H](C)OC)c2c3cc(ccc31)-c1cccc(c1)C[C@H](NC(=O)[C@H](C(C)C)N(C)C(=O)[C@H]1CCN(C(=O)C#CC3CC(F)(F)CN3C)C1)C(=O)N1CCC[C@H](N1)C(=O)OCC(C)(C)C2 (some centres unmarked) . Reported IC50?
### Response 1000 to 10000 nM

### Prompt Name the reported IC50 value associated with the compound `CCn1c(-c2cccnc2[C@H](C)OC)c2c3cc(ccc31)-c1csc(n1)C[C@H](NC(=O)[C@H](C(C)C)N(C)C(=O)[C@H]1CCN(C(=O)C(C)(C)N(C)C)C1)C(=O)N1CCC[C@H](N1)C(=O)OCC(C)(C)C2`
### Response 1000 to 10000 nM

### Prompt Report IC50 for `C=CC(=O)N1CC[C@H](C(=O)N(C)[C@H](C(=O)N[C@H]2Cc3nc(cs3)-c3ccc4c(c3)c(c(-c3cccnc3[C@H](C)OC)n4CC)CC(C)(C)CN(C)C[C@@H]3CCCN(N3)C2=O)C(C)C)C1` please.
### Response > 10000 nM

### Prompt Can you share its IC50? I mean this compound: `CCn1c(-c2cccnc2[C@H](C)OC)c2c3cc(ccc31)-c1csc(n1)C[C@H](NC(=O)[C@H](C(C)C)N(C)C(=O)N1C[C@H]3CN(C)C[C@H]31)C(=O)N1CCC[C@H](N1)C(=O)OCC(C)(C)C2`
### Response 1000 to 10000 nM

### Prompt Recorded IC50 of `CCn1c(-c2cnccc2COC)c2c3cc(ccc31)-c1cc(O)cc(c1)C[C@H](NC(=O)[C@H](C(C)C)N(C)C(=O)[C@H]1CCN(C(=O)/C=C/CN(C)C)C1)C(=O)N1CCC[C@H](N1)C(=O)OCC(C)(C)C2` , please.
### Response 100 to 1000 nM

### Prompt Name the reported IC50 value associated with the compound `CCn1c(-c2cccnc2[C@H](C)OC)c2c3cc(ccc31)-c1cc(O)cc(c1)C[C@H](NC(=O)[C@H](C(C)C)N(C)C(=O)[C@@H]1C[C@H]1C)C(=O)N1CCC[C@H](N1)C(=O)OCC(C)(C)C2`
### Response 10 to 100 nM

### Prompt // query IC50 value for entry `CCn1c(-c2cccnc2[C@H](C)OC)c2c3cc(ccc31)-c1cc(O)cc(c1)C[C@H](NS(=O)(=O)CC1CC1)C(=O)N1CCC[C@H](N1)C(=O)OCC(C)(C)C2`
### Response > 10000 nM

### Prompt Look up IC50: CCn1c(-c2cccnc2[C@H](C)OC)c2c3cc(ccc31)-c1csc(n1)C[C@H](NC(=O)[C@H](COC1CN(C(=O)C#CC(C)(C)N(C)C)C1)OC)C(=O)N1CCC[C@H](N1)C(=O)OCC(C)(C)C2 (atropisomer, axis not shown)
### Response 1000 to 10000 nM

### Prompt Could you tell me which IC50 is on file for CCn1c(-c2cccnc2[C@H](C)OC)c2c3cc(ccc31)-c1cc(O)cc(c1)C[C@H](NC(=O)C1[C@H]3COC[C@@H]13)C(=O)N1CCC[C@H](N1)C(=O)OCC(C)(C)C2 (some centres unmarked) ?
### Response 1000 to 10000 nM

### Prompt Name the reported IC50 value associated with the compound `C=CC(=O)N1CC[C@H](C(=O)N(C)[C@H](C(=O)N[C@H]2Cc3cc(O)cc(c3)-c3ccc4c(c3)c(c(-c3cccnc3[C@H](C)OC)n4C)CC(C)(C)COC(=O)[C@@H]3CCCN(N3)C2=O)C(C)C)C1`
### Response 1000 to 10000 nM

----------
molecular target: KRAS G12C (Homo sapiens, UniProt P01116+P62937, G12C); assay: Ras-Raf disruption / FRET / MOA assay (BRAF RBD); format: biochemical; details: Ras-Raf disruption, with Cyclophilin A; read-out: KRAS G12C FRET data IC50
Sequence (P01116 1-169 isoform P01116-2 G12C limits assumed): as the sequence (P01116 1-169 isoform P01116-2 G12C) above
Sequence (P62937 whole entry): as the sequence (P62937 whole entry) above
pIC50: −log10 of the molar value.
Entries and their pIC50

Illustrative cases are given below, each with its answer.
CCn1c(-c2cccnc2[C@H](C)OC)c2c3cc(ccc31)-c1cc(O)cc(c1)C[C@H](NC(=O)[C@H](C(C)C)N(C)C(=O)[C@@H]1CCN(C(=O)[C@H]3CN3)[C@@H]1C)C(=O)N1CCC[C@H](N1)C(=O)OCC(C)(C)C2 (atropisomer, axis not shown) : 7.00 to 8.00
CCn1c(-c2cccnc2[C@H](C)OC)c2c3cc(ccc31)-c1csc(n1)C[C@H](NC(=O)[C@H](C(C)C)N(C)C(=O)N(C)[C@H]1CCN(C(=O)[C@H]3CN3)C1)C(=O)N1CCC[C@H](N1)C(=O)OCC(C)(C)C2 (atropisomer, axis not shown) : 6.00 to 7.00
CCn1c(-c2cccnc2[C@H](C)OC)c2c3cc(ccc31)-c1cc(O)cc(c1)C[C@H](NC(=O)[C@H](C(C)C)N(C)C(=O)CC1CN(C(=O)[C@H]3CN3)C1)C(=O)N1CCC[C@H](N1)C(=O)OCC(C)(C)C2 : 7.00 to 8.00

Consider now this further compound.
### Prompt Which pIC50 is reported with KRAS G12C (Homo sapiens, UniProt P01116+P62937, G12C) for this entry: CCn1c(-c2cccnc2[C@H](C)OC)c2c3cc(ccc31)-c1cc(O)cc(c1)C[C@H](NC(=O)[C@H](C(C)C)N(C)C(=O)[C@H]1CCN(C(=O)C3OC3c3ccccc3)C1)C(=O)N1CCC[C@H](N1)C(=O)OCC(C)(C)C2 (stereo partly shown) ?
### Response > 8.00
